test system: PPARg:RXRa 30nM:10nM, anti-RXR (NR concentration 30 nM, RXRa partner concentration 10 nM); test: PBM binding z-score (relative to random genomic background probes); higher = stronger binding; sequences stand for … in GC…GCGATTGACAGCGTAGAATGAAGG
Field: PBM binding z-score. Provide a value for each of the sequences that follow.
Note: the reply should be a number with no unit written.

Prompt: Query the reported PBM binding z-score for PPARg:RXRa 30nM:10nM, anti-RXR (NR concentration 30 nM, RXRa partner concentration 10 nM); item: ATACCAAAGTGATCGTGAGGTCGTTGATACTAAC
Completion: 0.0966

Prompt: Query the reported PBM binding z-score for PPARg:RXRa 30nM:10nM, anti-RXR (NR concentration 30 nM, RXRa partner concentration 10 nM); item: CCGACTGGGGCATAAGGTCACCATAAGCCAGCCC
Completion: 2.53

Prompt: Query the reported PBM binding z-score for PPARg:RXRa 30nM:10nM, anti-RXR (NR concentration 30 nM, RXRa partner concentration 10 nM); item: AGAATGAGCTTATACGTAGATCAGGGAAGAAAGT
Completion: -0.0699

Prompt: Query the reported PBM binding z-score for PPARg:RXRa 30nM:10nM, anti-RXR (NR concentration 30 nM, RXRa partner concentration 10 nM); item: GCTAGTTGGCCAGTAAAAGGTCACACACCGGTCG
Completion: 1.25

Prompt: Query the reported PBM binding z-score for PPARg:RXRa 30nM:10nM, anti-RXR (NR concentration 30 nM, RXRa partner concentration 10 nM); item: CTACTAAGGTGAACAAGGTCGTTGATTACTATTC
Completion: 0.156

Prompt: Query the reported PBM binding z-score for PPARg:RXRa 30nM:10nM, anti-RXR (NR concentration 30 nM, RXRa partner concentration 10 nM); item: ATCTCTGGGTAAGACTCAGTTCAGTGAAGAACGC
Completion: 0.108

Prompt: Query the reported PBM binding z-score for PPARg:RXRa 30nM:10nM, anti-RXR (NR concentration 30 nM, RXRa partner concentration 10 nM); item: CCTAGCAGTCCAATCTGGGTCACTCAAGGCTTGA
Completion: -0.0165

Prompt: Query the reported PBM binding z-score for PPARg:RXRa 30nM:10nM, anti-RXR (NR concentration 30 nM, RXRa partner concentration 10 nM); item: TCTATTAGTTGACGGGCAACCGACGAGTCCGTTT
Completion: 3.47

Prompt: Query the reported PBM binding z-score for PPARg:RXRa 30nM:10nM, anti-RXR (NR concentration 30 nM, RXRa partner concentration 10 nM); item: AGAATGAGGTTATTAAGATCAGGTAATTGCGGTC
Completion: 0.716

Prompt: Query the reported PBM binding z-score for PPARg:RXRa 30nM:10nM, anti-RXR (NR concentration 30 nM, RXRa partner concentration 10 nM); item: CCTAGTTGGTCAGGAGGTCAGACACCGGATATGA
Completion: 0.691

Prompt: Query the reported PBM binding z-score for PPARg:RXRa 30nM:10nM, anti-RXR (NR concentration 30 nM, RXRa partner concentration 10 nM); item: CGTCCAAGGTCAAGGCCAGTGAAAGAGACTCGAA
Completion: 1.48

Prompt: Query the reported PBM binding z-score for PPARg:RXRa 30nM:10nM, anti-RXR (NR concentration 30 nM, RXRa partner concentration 10 nM); item: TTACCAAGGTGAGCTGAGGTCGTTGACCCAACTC
Completion: -0.036

Prompt: Query the reported PBM binding z-score for PPARg:RXRa 30nM:10nM, anti-RXR (NR concentration 30 nM, RXRa partner concentration 10 nM); item: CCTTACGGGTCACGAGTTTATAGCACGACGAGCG
Completion: 2.81

Prompt: Query the reported PBM binding z-score for PPARg:RXRa 30nM:10nM, anti-RXR (NR concentration 30 nM, RXRa partner concentration 10 nM); item: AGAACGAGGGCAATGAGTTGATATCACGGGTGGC
Completion: 0.219

Prompt: Query the reported PBM binding z-score for PPARg:RXRa 30nM:10nM, anti-RXR (NR concentration 30 nM, RXRa partner concentration 10 nM); item: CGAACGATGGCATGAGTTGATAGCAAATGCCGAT
Completion: 0.0969

Prompt: Query the reported PBM binding z-score for PPARg:RXRa 30nM:10nM, anti-RXR (NR concentration 30 nM, RXRa partner concentration 10 nM); item: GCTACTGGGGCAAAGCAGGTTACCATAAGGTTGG
Completion: 0.398

Prompt: Query the reported PBM binding z-score for PPARg:RXRa 30nM:10nM, anti-RXR (NR concentration 30 nM, RXRa partner concentration 10 nM); item: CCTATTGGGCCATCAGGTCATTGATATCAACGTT
Completion: 0.897

Prompt: Query the reported PBM binding z-score for PPARg:RXRa 30nM:10nM, anti-RXR (NR concentration 30 nM, RXRa partner concentration 10 nM); item: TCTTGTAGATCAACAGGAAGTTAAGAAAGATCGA
Completion: 2.73

Prompt: Query the reported PBM binding z-score for PPARg:RXRa 30nM:10nM, anti-RXR (NR concentration 30 nM, RXRa partner concentration 10 nM); item: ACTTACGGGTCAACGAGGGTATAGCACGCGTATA
Completion: 1.72

Prompt: Query the reported PBM binding z-score for PPARg:RXRa 30nM:10nM, anti-RXR (NR concentration 30 nM, RXRa partner concentration 10 nM); item: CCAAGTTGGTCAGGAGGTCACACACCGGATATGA
Completion: 1.85

---

tested on: VDR:RXRa (NR concentration 270 nM, RXRa partner concentration 90 nM); test: PBM binding z-score (relative to random genomic background probes); higher = stronger binding; sequences stand for … in GC…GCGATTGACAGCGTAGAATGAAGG
# if value of PBM binding z-score reaches 3, tag MET; if it stays below, tag NOT MET

Prompt: In plain terms: is recorded PBM binding z-score at least 3 for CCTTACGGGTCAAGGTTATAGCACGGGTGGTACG ?
Completion: MET

Prompt: In plain terms: is recorded PBM binding z-score at least 3 for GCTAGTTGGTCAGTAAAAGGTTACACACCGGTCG ?
Completion: NOT MET

Prompt: In plain terms: is recorded PBM binding z-score at least 3 for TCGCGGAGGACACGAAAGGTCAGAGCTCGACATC ?
Completion: MET

Prompt: In plain terms: is recorded PBM binding z-score at least 3 for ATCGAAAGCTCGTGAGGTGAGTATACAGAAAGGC ?
Completion: NOT MET

Prompt: In plain terms: is recorded PBM binding z-score at least 3 for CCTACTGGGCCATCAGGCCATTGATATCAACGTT ?
Completion: NOT MET

Prompt: In plain terms: is recorded PBM binding z-score at least 3 for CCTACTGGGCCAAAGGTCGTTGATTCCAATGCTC ?
Completion: NOT MET

Prompt: In plain terms: is recorded PBM binding z-score at least 3 for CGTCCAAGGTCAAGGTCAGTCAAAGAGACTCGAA ?
Completion: MET

Prompt: In plain terms: is recorded PBM binding z-score at least 3 for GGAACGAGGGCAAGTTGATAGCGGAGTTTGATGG ?
Completion: NOT MET

Prompt: In plain terms: is recorded PBM binding z-score at least 3 for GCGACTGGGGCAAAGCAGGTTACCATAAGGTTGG ?
Completion: NOT MET

Prompt: In plain terms: is recorded PBM binding z-score at least 3 for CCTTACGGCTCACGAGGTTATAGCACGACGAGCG ?
Completion: NOT MET

Prompt: In plain terms: is recorded PBM binding z-score at least 3 for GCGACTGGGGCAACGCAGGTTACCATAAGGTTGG ?
Completion: NOT MET

Prompt: In plain terms: is recorded PBM binding z-score at least 3 for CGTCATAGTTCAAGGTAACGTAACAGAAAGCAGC ?
Completion: NOT MET

Prompt: In plain terms: is recorded PBM binding z-score at least 3 for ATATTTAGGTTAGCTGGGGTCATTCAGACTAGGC ?
Completion: MET

Prompt: In plain terms: is recorded PBM binding z-score at least 3 for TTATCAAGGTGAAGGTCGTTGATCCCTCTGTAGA ?
Completion: NOT MET

Prompt: In plain terms: is recorded PBM binding z-score at least 3 for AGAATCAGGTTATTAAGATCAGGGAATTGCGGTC ?
Completion: NOT MET

Prompt: In plain terms: is recorded PBM binding z-score at least 3 for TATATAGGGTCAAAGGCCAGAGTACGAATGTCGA ?
Completion: MET

Prompt: In plain terms: is recorded PBM binding z-score at least 3 for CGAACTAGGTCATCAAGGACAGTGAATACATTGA ?
Completion: MET

Values were extracted from the supplement of paper PMC6555819.
